This collection of values is drawn from ChEMBL document CHEMBL3120107.

Test system: MCF7
TEST PROTOCOL: Cytotoxicity against human MCF7 cells assessed as growth inhibition after 72 hrs by SRB assay
Assay type: functional
STATED CONDITIONS: Homo sapiens, MCF7, 72 h; read-out: ED50 (the source's name)
EXPERIMENTAL READOUT: EC50 (µg/mL)

INSERT INTO measurements (molecule, unit_text, value) VALUES
  ('C[C@H]1O[C@@H](O[C@H]2CC[C@]3(C=O)[C@H]4CC[C@]5(C)[C@@H](C6=CC(=O)OC6)CC[C@]5(O)[C@@H]4CC[C@]3(O)C2)[C@H](O)[C@H](O)[C@H]1O [DESGLUCOCHEIROTOXIN]', 'µg/mL', 0.015),
  ('C[C@H]1O[C@H](O[C@H]2CC[C@]3(C(=O)O)[C@H]4C[C@@H](O)[C@]5(C)[C@@H](C6=CC(=O)OC6)CC[C@]5(O)[C@@H]4CC[C@]3(O)C2)[C@H](O)[C@H](O)[C@H]1O [ANTIAROSIDE H]', 'µg/mL', 3.1),
  ('C[C@H]1O[C@@H](O[C@H]2CC[C@]3(C)[C@H]4CC[C@]5(C)[C@@H](C6=CC(=O)OC6)CC[C@]5(O)[C@@H]4CC[C@]3(O)C2)[C@H](O)[C@H](O)[C@H]1O [ANTIAROSIDE A]', 'µg/mL', 0.063);

----------
Test system: CAKI-1
TEST PROTOCOL: Cytotoxicity against human CAKI-1 cells assessed as growth inhibition after 72 hrs by SRB assay
Format: functional
STATED CONDITIONS: Homo sapiens, CAKI-1, 72 h; read-out: ED50 (the source's name)
EXPERIMENTAL READOUT: EC50 (µg/mL)

INSERT INTO assay_data (molecule, value) VALUES
  ('C[C@@H]1O[C@H](O[C@H]2CC[C@]3(C=O)[C@H]4C[C@@H](O)[C@]5(C)[C@@H](C6=CC(=O)OC6)CC[C@]5(O)[C@@H]4CC[C@]3(O)C2)[C@H](O)[C@H](O)[C@H]1O', 0.015),
  ('COc1c(CC(O)C(C)(C)O)cc2ccc(=O)oc2c1O (configuration not stated)', 1.5),
  ('CO[C@H]1[C@@H](O[C@H]2CC[C@]3(C=O)[C@H]4C[C@@H](O)[C@]5(C)[C@@H](C6=CC(=O)OC6)CC[C@]5(O)[C@@H]4CC[C@]3(O)C2)O[C@H](C)[C@@H](O)[C@@H]1O [TOXICARIOSIDE B]', 0.07),
  ('C[C@H]1O[C@@H](O[C@H]2CC[C@]3(C=O)[C@H]4CC[C@]5(C)[C@@H](C6=CC(=O)OC6)CC[C@]5(O)[C@@H]4CC[C@]3(O)C2)[C@H](O)[C@H](O)[C@H]1O[C@@H]1O[C@H](CO)[C@@H](O)[C@H](O)[C@H]1O', 0.51),
  ('C[C@]12CC[C@H]3[C@@H](CC[C@@H]4C[C@@H](O)CC[C@@]43CO)[C@@]1(O)CC[C@@H]2C1=CC(=O)OC1', 0.11),
  ('C[C@]12CC[C@H]3[C@@H](CC[C@]4(O)C[C@@H](O)CC[C@]34CO)[C@@]1(O)CC[C@@H]2C1=CC(=O)OC1', 0.67),
  ('C[C@H]1O[C@H](O[C@H]2CC[C@]3(C(=O)O)[C@H]4C[C@@H](O)[C@]5(C)[C@@H](C6=CC(=O)OC6)CC[C@]5(O)[C@@H]4CC[C@]3(O)C2)[C@H](O)[C@H](O)[C@H]1O [ANTIAROSIDE H]', 1.5),
  ('C[C@@H]1O[C@@H](O[C@H]2CC[C@]3(C=O)[C@H]4CC[C@]5(C)[C@@H](C6=CC(=O)OC6)CC[C@]5(O)[C@@H]4CC[C@]3(O)C2)[C@H](O)[C@H](O)[C@H]1O', 0.0031),
  ('C[C@@H]1O[C@H](O[C@H]2CC[C@@]3(C(=O)O[C@@H]4O[C@H](CO)[C@@H](O)[C@H](O)[C@H]4O)[C@H](CC[C@@H]4[C@@H]3CC[C@]3(C)[C@@H](C5=CC(=O)OC5)CC[C@]43O)C2)[C@H](O)[C@H](O)[C@H]1O [ANTIAROSIDE F]', 1.2),
  ('C[C@@H]1O[C@H](O[C@@H]2CC[C@]3(C=O)[C@H]4CC[C@]5(C)[C@@H](C6=CC(=O)OC6)CC[C@]5(O)[C@@H]4CC[C@]3(O)C2)[C@H](O)[C@H](O)[C@H]1O [ANTIAROSIDE C]', 0.32),
  ('C[C@H]1O[C@@H](O[C@H]2CC[C@]3(C=O)[C@H]4CC[C@]5(C)[C@@H](C6=CC(=O)OC6)CC[C@]5(O)[C@@H]4CC[C@]3(O)C2)[C@H](O)[C@H](O)[C@H]1O', 0.014),
  ('C[C@H]1O[C@H](O[C@H]2CC[C@]3(C=O)[C@H]4C[C@@H](O)[C@]5(C)[C@@H](C6=CC(=O)OC6)CC[C@]5(O)[C@@H]4CC[C@]3(O)C2)[C@H](O)[C@H](O)[C@H]1O', 0.072);
